# target-desc: PYL5 (Arabidopsis thaliana, UniProt Q9FLB1)
# Construct: 6X-His; made in house; host or cells: E. coli BL21[DE3]pLysS
# Sequence (Q9FLB1 whole entry): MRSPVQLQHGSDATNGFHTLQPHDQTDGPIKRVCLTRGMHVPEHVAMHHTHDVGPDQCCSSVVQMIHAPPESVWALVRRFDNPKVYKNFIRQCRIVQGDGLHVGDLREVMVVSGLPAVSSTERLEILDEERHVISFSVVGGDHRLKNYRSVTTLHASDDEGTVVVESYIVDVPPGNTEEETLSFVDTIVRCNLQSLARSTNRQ
# Sequence (Q9CAJ0 23-511 partner): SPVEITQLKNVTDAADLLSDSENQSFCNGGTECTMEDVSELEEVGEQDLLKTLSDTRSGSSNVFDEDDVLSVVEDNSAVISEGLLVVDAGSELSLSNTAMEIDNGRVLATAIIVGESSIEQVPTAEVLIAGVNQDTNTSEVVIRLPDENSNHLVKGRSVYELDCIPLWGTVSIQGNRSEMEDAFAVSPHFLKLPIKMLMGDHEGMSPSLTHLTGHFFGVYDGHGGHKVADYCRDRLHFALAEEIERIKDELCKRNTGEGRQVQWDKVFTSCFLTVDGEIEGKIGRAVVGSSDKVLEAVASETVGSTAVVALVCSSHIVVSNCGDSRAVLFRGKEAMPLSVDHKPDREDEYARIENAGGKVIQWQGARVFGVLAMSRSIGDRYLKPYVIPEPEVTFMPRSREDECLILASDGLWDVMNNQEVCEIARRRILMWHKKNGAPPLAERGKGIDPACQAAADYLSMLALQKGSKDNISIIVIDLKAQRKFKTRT
# assay-info: receptor-mediated PP2C (HAB1) inhibition in vitro assay
# Format: biochemical
# applied-conditions: compound at 25 μM; control without agonist = 100%
readout-kind: remaining activity at 25 µM (%)

N#Cc1ccc(CS(=O)(=O)NC(=O)C2(c3cccc(F)c3)CC2)cc1 : 24
CC(C)(C(=O)NS(=O)(=O)Cc1ccc([N+](=O)[O-])cc1)c1ccccc1 : 47
N#Cc1ccc(CS(=O)(=O)NC(=O)C2(c3ccc(F)cc3)CCCCC2)cc1 : 97
CCC(CC)(C(=O)NS(=O)(=O)Cc1ccc([N+](=O)[O-])cc1)c1ccccc1 : 85
N#Cc1ccc(CS(=O)(=O)NC(=O)C2(c3ccccc3)CCC2)cc1 : 90
O=C(NS(=O)(=O)Cc1cccc2cccnc12)C1(c2ccccc2)CC1 : 103
N#Cc1ccc(CS(=O)(=O)NC(=O)C2(c3ccc(F)cc3)CCCC2)cc1 : 99
Cc1ccccc1C1(C(=O)NS(=O)(=O)Cc2ccc(C#N)cc2)CC1 : 18
N#Cc1ccc(CS(=O)(=O)NC(=O)C2(c3ccccc3F)CCCC2)cc1 : 102
COc1ccccc1C1(C(=O)NS(=O)(=O)Cc2ccc(C#N)cc2)CCC1 : 45
CC1(C(=O)NS(=O)(=O)Cc2ccc(C#N)cc2)CCCc2ccccc21 (stereo not drawn) : 16
CC(C)(C(=O)NS(=O)(=O)Cc1ccc(C#N)cc1)c1ccc(Cl)cc1 : 21
N#Cc1ccc(CS(=O)(=O)NC(=O)C2(c3ccc(F)cc3)CC2)cc1 : 20
N#Cc1ccc(CS(=O)(=O)NC(=O)C2(c3ccc(Br)cc3)CC2)cc1 : 12
N#Cc1ccc(CS(=O)(=O)NC(=O)C2(c3ccc(F)cc3)CCC2)cc1 : 74
CC(C)(C(=O)NS(=O)(=O)Cc1ccc(C#N)cc1)c1ccc(F)cc1 : 37
Cc1cccc(C2(C(=O)NS(=O)(=O)Cc3ccc(C#N)cc3)CCCC2)c1 : 95
CC(C)(C(=O)NS(=O)(=O)Cc1ccc(C#N)cc1)c1ccc(Cl)c(Cl)c1 : 33
